Test system: Human immunodeficiency virus 1
Experimental details: Antiviral activity against wild type Human immunodeficiency virus 1 infected human MT4 cells assessed as inhibition of virus-induced cytopathic effect after 4 days by MTT assay
Type: functional, organism-based
Measurement conditions: Human immunodeficiency virus 1, MT4, 96 h
Assay endpoint: EC50

O=C(OCCN1C(=O)[C@H]2CC=CC[C@H]2C1=O)c1cc(F)ccc1F | > 100 µM
O=C(OCCN1C(=O)c2ccccc2C1=O)c1cc(C(F)(F)F)ccc1F | > 100 µM
O=C(OCCN1C(=O)c2ccccc2C1=O)c1ccc(Br)cc1 | > 100 µM
O=C(OCCN1C(=O)c2ccccc2C1=O)c1ccc(Cl)nc1 | > 100 µM
O=C(OCCN1C(=O)c2ccccc2C1=O)c1cccnc1Cl | > 100 µM
O=C(OCCN1C(=O)[C@H]2CC=CC[C@H]2C1=O)c1ccc(Cl)c([N+](=O)[O-])c1 | > 36 µM

Query for Human immunodeficiency virus 1: what EC50 does the record show for O=C(OCCOc1ccc([N+](=O)[O-])cc1)c1ccc(Cl)c([N+](=O)[O-])c1 ?
> 47 µM
